Listed binders paired with reported kon
Molecular target: T1, recombinant human IL-36R extracellular domain expressed with a C-terminal myc-myc-hexahistidine tag (human, UniProt Q9HB29 20-337)
T1 construct: also called hIL-36R-MMH; hIL-36R.mmH
T1 sequence (Q9HB29 other isoform, or with tags, fused parts or gaps limits assumed): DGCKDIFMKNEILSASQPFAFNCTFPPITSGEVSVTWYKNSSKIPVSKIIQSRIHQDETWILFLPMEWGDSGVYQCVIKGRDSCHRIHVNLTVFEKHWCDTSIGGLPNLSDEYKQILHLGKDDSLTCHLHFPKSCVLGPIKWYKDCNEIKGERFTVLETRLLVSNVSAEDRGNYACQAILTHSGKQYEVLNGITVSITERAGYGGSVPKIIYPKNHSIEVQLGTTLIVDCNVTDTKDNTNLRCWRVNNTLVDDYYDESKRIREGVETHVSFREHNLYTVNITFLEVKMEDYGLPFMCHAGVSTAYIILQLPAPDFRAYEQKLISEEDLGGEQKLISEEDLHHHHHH
Test: SPR (Biacore 4000), mAb captured on anti-human Fc, 25°C
A number alone suffices; assume M⁻¹ s⁻¹.

Specify measured kon for H4H14758P (antibody, human IgG4 S228P, kappa, V domains shown) VH: EVQLVESGGGLVQPGRSLRLSCAASGFTFDDYAMHWVRQAPGKGLEWVSSVRWNGGIIGYADSVKGRFTISRDNAKNSLYLQMNSLRPEDTALYYCAKDIGDVLTGYYGEYGMDVWGQGTTVTVSS VL: DIQMTQSPSSLSASVGDRVTIACRASQSITTYLNWYQQKPGKAPKLLIYAASSLQSGVPSRFSGSGSGTDFTLTISSLQPEDFATYYCQQSYISPYTFGQGTKLEIKR . 121000

Specify measured kon for H4H14728P (antibody, human IgG4 S228P, kappa, V domains shown) VH: QVQLQESGPGLVKPSQTLSLTCTVSGGSISSADYYWSWIRQHPGKGLEWIGSIYYTGSTYYNPSLKSRLTISIDTSENQFSLKLTSLTAADTAVYYCASEEANWGSHFDSWGQGTLVTVSS VL: DIQMTQSPSSLSASVGDRVTITCRASQSIDNFLNWYQQKPGKAPKLLIYAASSLQSGVPSRFSGSGSGTDFTLTISSLQPEDFASYYCQHSHSAHPITFGQGTRLEIKR . 98300

Specify measured kon for H4H14708P2 (antibody, human IgG4 S228P, kappa, V domains shown) VH: EVQLVESGGDLVQPGRSLRLSCAASGFTFDDYAMHWVRQAPGKGLEWVSVISWNSDVIAYSDSVKGRFTISRDNAKNSLYLQMNSLRTEDTALYYCTKGHKWSFFDYWGQGTLVTVSS VL: EIVLTQSPATLSLSPGERATLSCRASQSISSYLAWYQQKPGQAPRLLIFNVANRATDIPARFSGSGSGTDFTLTISSLEPEDFAVYYCQQRSNWPLTFGGGTKVEIKR . 91400

Specify measured kon for H4H14699P2 (antibody, human IgG4 S228P, kappa, V domains shown, Fully human anti-IL-36R antibody) VH: EVQLVESGGGLVQPGRSLRLSCAASGFTFDDYAIHWVRQAPGKGLEWVSVISWNSDIIGYADSVKGRFTVSRDNAKNSLYLQMNSLRTEDTALYYCAKGYNWNFFDYWGQGTLVTVSS VL: EIVLTQSPATLSLSPGERATLSCRASQSVSSYLAWYQQKPGQAPRLLIYNAANRATDIPARFSGSGSGTDFTLTISSLEPEDFAVYYCQQRSNWPLTFGGGTKVEIKR . 165000

Specify measured kon for H4H14731P (antibody, human IgG4 S228P, kappa, V domains shown) VH: QLQLQESGPGLVKPSETLSLTCTVSGGSISSSNYYWGWIRQPPGKRLEWIGSIYYSGSTYYNPSLKTRVTISVDTSKNQFSLKLTSVTAADTAVYYCAREEAAALTHFDFWGQGTLVTVSS VL: DIQMTQSPSSLSASVGDRVTITCRASQSISNYLNWYQQKPGKAPKLLIFAASSLQSGVPSRFSGSGSGTDFTLTISSLQPEDFATYYCQHSHSSHPITFGQGTRLEIKR . 92200

Could you now consider this next binder?
Specify measured kon for H4H14706P2 (antibody, human IgG4 S228P, kappa, V domains shown) VH: EVQLVESGGGLVQPGRSLRLSCTASGFTFDDYAIHWVRQSPGKGLEWVSVISWNSDVIGYADSVKGRFTISRDNAKNSLYLQMNSLRAEDTALYYCAKGYNWNFFDYWGQGTLVTVSS VL: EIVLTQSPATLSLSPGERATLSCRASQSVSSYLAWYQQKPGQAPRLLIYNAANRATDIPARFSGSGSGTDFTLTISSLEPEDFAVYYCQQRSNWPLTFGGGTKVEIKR . 121000
